Target: recombinant human plasma kallikrein/KLKB1 Protein (human, UniProt P03952 20-638)
Sequence (P03952 20-638): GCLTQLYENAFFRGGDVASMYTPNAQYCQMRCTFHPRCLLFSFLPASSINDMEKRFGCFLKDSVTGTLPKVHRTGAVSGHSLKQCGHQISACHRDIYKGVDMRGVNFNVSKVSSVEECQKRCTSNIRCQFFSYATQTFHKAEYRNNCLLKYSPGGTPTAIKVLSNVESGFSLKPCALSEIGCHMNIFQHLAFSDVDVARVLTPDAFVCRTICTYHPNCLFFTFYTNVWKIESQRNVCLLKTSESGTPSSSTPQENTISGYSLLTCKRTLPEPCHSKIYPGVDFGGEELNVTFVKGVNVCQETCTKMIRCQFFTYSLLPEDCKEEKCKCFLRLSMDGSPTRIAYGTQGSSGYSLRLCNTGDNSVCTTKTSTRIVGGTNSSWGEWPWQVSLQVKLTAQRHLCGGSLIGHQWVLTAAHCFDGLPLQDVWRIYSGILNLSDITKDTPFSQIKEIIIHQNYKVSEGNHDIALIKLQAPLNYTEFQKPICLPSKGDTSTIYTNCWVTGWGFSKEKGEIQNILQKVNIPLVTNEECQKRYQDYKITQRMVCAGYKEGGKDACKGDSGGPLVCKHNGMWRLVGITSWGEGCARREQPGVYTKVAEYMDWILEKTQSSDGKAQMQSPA
Experiment: substrate peptide degradation inhibition
readoutType: IC50

binder	readoutType	readoutValue
active MMP-9-binding peptide M91004 (designed binder) GSGMKETAAAKFERQHMDSPDLGTDDDDKAMADIGSANSDPQFGLFSKYRTPNCRQRKGPSCQMAFQPVCGSDMSTYANECTLCMKIREGGHNIKIIRNGPCGASAAA	IC50	> 1 µM
active MMP-9-binding peptide M91001 (designed binder) GSGMKETAAAKFERQHMDSPDLGTDDDDKAMADIGSANSDPQFGLFSKYRTPNCQRGIGPSCQMSYKPVCGSDMSTYANECTLCMKIREGGHNIKIIRNGPCGASAAA	IC50	> 1 µM
